Test system: Pyrenophora teres
method: In vivo test on Pyrenophora teres (barley net blotch)
experimentalParameters: dose of 500 ppm; barley plants; grading 12 days after contamination
Measured protection, listed per entry.
The response must be a number in % with no trailing unit.

Some molecules with known protection results, for comparison:
molecule: CCC(C)n1cc(-c2ccnc(NC(=O)C3CC3)c2)c(-c2ccc(Cl)s2)n1 (stereo not shown)
uom: %
valueMeasured: 100
//
molecule: CCC(=O)Nc1cc(-c2cn(C(C)CC)nc2-c2ccc(Cl)s2)ccn1 (stereo not shown)
uom: %
valueMeasured: 95
//
molecule: CCC(C)n1cc(-c2ccnc(NC(=O)c3ccsc3)c2)c(-c2ccc(Cl)s2)n1 (stereo not shown)
uom: %
valueMeasured: 70

# ---- query molecule ----
Query: What value of protection has been recorded for this entry: CCC(C)C(=O)Nc1cc(-c2cn(C)nc2-c2ccc(Cl)s2)ccn1 (stereo not shown)
Response: 90
